Provenance of the data: patent US20250154115A1

Tested On: IP6K1 (Homo sapiens (Human), UniProt Q92551)
Sequence (Q92551 whole entry): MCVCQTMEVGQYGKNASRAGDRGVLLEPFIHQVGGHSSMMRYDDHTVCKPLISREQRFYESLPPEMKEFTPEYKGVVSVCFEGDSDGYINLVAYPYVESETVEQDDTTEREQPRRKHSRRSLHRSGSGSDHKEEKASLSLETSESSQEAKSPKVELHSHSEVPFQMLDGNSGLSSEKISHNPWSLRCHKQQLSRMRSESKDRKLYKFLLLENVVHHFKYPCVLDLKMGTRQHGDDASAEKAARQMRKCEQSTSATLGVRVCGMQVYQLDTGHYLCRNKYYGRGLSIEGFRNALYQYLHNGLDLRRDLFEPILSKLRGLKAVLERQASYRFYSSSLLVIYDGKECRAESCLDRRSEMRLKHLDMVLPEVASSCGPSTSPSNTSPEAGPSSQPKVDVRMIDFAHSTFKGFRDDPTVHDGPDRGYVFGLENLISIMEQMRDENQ
Assay Explanation: Enzyme-coupled assay of IP6K1 activity (Dipp1-coupled, malachite green Pi release)
Type: biochemical
Reported Conditions: enzyme-coupled assay; Table 4
pIC50: −log10 of the molar value.
Reported values of pIC50 for individual entries

**Query** Return pIC50 for the following compound: CC1(C(=O)N2CCC(c3ccc(-c4onc5ccc(-c6nnn[nH]6)cc45)cc3)CC2)COC1 [Compound 121]
**Result** 6.00 to 7.00

**Query** Return pIC50 for the following compound: c1ccc(-c2ccc(-c3onc4ccc(-c5nnn[nH]5)cc34)cc2)cc1 [Compound 68]
**Result** 7.00 to 8.00

**Query** Return pIC50 for the following compound: CC(=O)N1CCC(c2ccc(-c3onc4ccc(-c5nnn[nH]5)cc34)cc2)CC1 [Compound 119]
**Result** 6.00 to 7.00

**Query** Return pIC50 for the following compound: c1cc(-c2onc3ccc(-c4nnn[nH]4)cc23)cc(C2CCN(CC3CC3)CC2)c1 [Compound 107]
**Result** 7.00 to 8.00

**Query** Return pIC50 for the following compound: O=C(Nc1ccc(-c2onc3ccc(-c4nnn[nH]4)cc23)cc1)[C@@H]1CCCN1 [Compound 100]
**Result** 6.00 to 7.00

**Query** Return pIC50 for the following compound: O=C(Nc1ccc(-c2onc3ccc(-c4nnn[nH]4)cc23)cc1)C1CC1 [Compound 71]
**Result** 7.00 to 8.00

**Query** Return pIC50 for the following compound: Clc1ccccc1-c1onc2ccc(-c3nnn[nH]3)cc12 [Compound 76]
**Result** 7.00 to 8.00

**Query** Return pIC50 for the following compound: c1cc2noc(-c3ccc(C4CCN(C5CCC5)CC4)cc3)c2cc1-c1nnn[nH]1 [Compound 118]
**Result** 7.00 to 8.00

Others:
**Query** Return pIC50 for the following compound: c1cc(OC2CNC2)cc(-c2onc3ccc(-c4nnn[nH]4)cc23)c1 [Compound 92]
**Result** 7.00 to 8.00

**Query** Return pIC50 for the following compound: c1ccc(-c2onc3ccc(-c4nnn[nH]4)cc23)cc1 [Compound 59]
**Result** 7.00 to 8.00

**Query** Return pIC50 for the following compound: O=C(Nc1ccc(-c2onc3ccc(-c4nnn[nH]4)cc23)cc1)C1CCNC1 (stereo not shown) [Compound 101]
**Result** 6.00 to 7.00
